- test-name: M. tuberculosis growth inhibition, HTS (AID 1259417);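 further: bacteria grown with compound for 5 days at 37 °C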
- run-conditions: M. tuberculosis DsRed fluorescence growth inhibition; stronger effect = higher value; concentration not given here
Hit rate of the full screen: of about 1,100 compounds, about 760 (69%) were called active. So high a share suggests a set chosen from earlier hits. The list shows a part of the results.
Param threshold (80%) applies to inhibition; output 1.0 when value >= threshold, 0.0 when value < threshold.

Below are worked cases with known answers.
# molecule-smiles, classification
rows = [
    ("O=C(Nc1ccn(Cc2ccc(Cl)cc2)n1)c1ccc2c(c1)OCO2", 1.0),
    ("COC(=O)c1ccc2nc(C)cc(Nc3ccc(OCc4ccccc4)cc3)c2c1", 1.0),
    ("c1ccc(-c2nnc(SCc3nnc(-c4cccs4)o3)o2)cc1", 0.0),
    ("Cc1ccc(-c2nnc(NC(=O)c3ccc(Cl)s3)o2)c(C)c1", 1.0),
    ("Cc1ccc(-c2nnc(NC(=O)c3ccc(Br)s3)o2)c(C)c1", 1.0),
]

Does CCOC(=O)COc1ccc(C(=O)NC2CCCCC2)cc1 have a reported inhibition of at least 80%? 0.0

// same read-out, input: CC(C)c1ccc(-c2csc(NC(=O)c3ccc4c(c3)OCCO4)n2)cc1 0.0

* * *

- test-name: M. tuberculosis growth inhibition, HTS (AID 1259417);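 further: bacteria grown with compound for 5 days at 37 °C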
- run-conditions: M. tuberculosis growth inhibition; stronger effect = higher value; concentration not given here
Among all 1,100 compounds or so, about 760 (69%) were called active. So high a share suggests a set chosen from earlier hits. Some of the results follow.
So I've got a bunch of compounds here, and I need their inhibition values.
One number for each entry, in %.

# compound, inhibition / %
measured = [
    ("CC1CCC(C(C)C)C(OC(=O)Cn2c(-c3ccc(F)cc3)[n+](C)c3ccccc32)C1 (stereo not given)", 97.5),
    ("CCCCn1c(O)c(/C=C2\\C=CC=N2)c(=O)[nH]c1=O", 89.6),
    ("CSc1ccc(C(=O)C2CCCN(Cc3cc4ccccc4[nH]3)C2)cc1 (stereo not given)", -24.7),
]

Hi there! I need inhibition for each item below, if you can.
1. COc1ccc(C2CC(c3c(-c4ccccc4)c4cc(Br)ccc4[nH]c3=O)=NN2C(=O)c2ccccc2)cc1 (stereo not given)
2. CCOC(=O)CSc1cc(C)nc2ccc(C)cc12

1: 8.15; 2: 99.3

* * *

- test-name: M. tuberculosis growth inhibition, HTS (AID 1259417);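 further: bacteria grown with compound for 5 days at 37 °C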
- run-conditions: M. tuberculosis DsRed fluorescence growth inhibition; stronger effect = higher value; concentration not given here
Among all 1,100 compounds or so, about 760 (69%) were called active. So high a share suggests a set chosen from earlier hits. Some of the results follow.
So I've got a bunch of molecules here, and I need their inhibition values.
Answers are plain numbers, in %.

Hi there! I need inhibition for each item below, if you can.
1. COc1cccc(C(=O)NC(=S)Nc2ccc(N3CCN(C(=O)c4cccs4)CC3)c(Cl)c2)c1
2. Cn1nc([N+](=O)[O-])nc1Sc1nnc(-c2cccnc2)o1

[62, 87.1]

Hi there! I need inhibition for each item below, if you can.
1. Cc1cccc(N2CCN(C3=NC(=O)C(=C4CCCCC4)S3)CC2)c1
2. CCOc1ccc(C(=O)Nc2ccc(N3CCN(C(=O)c4cccs4)CC3)c(Cl)c2)cc1Br
3. FC(F)(F)c1cccc(-n2cc(-c3ccccc3)c3c(NCc4cccnc4)ncnc32)c1

1. 84.8
2. 14.9
3. 4.11

* * *

- test-name: M. tuberculosis growth inhibition, HTS (AID 1259417);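 further: bacteria grown with compound for 5 days at 37 °C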
- run-conditions: M. tuberculosis growth inhibition; stronger effect = higher value; concentration not given here
Out of some 1,100 compounds screened, about 760 (69%) were called active. The set was probably picked from earlier hits. Some of the results follow.
So I've got a bunch of compounds here, and I need their inhibition values.
Give bare numbers, in %.

For orientation, consider the following solved cases.
# compound, inhibition (%)
rows = [
    ("Cc1ccc(C)c(-c2nnc(NC(=O)C(C)(C)C)o2)c1", 83.8),
    ("O=C(NC1CCCCC1)N1CCN(Cc2ccc3c(c2)OCO3)CC1", 100),
    ("COc1ccc(-n2c(C)nc3sc4c(c3c2=O)CCCC4)cc1", -14.1),
]

Hi there! I need inhibition for each item below, if you can.
1. O=C(Nc1nnc(-c2ccc3c(c2)CCCC3)o1)c1ccccc1Br
2. CCOC(=O)c1ccc(NC(=O)C=Cc2ccc([N+](=O)[O-])s2)cc1
3. Cc1ccc(C)c(OCC(=O)Nc2ccc(C(=O)OC(C)C)cc2)c1C
4. Cc1ccc(C)c(-c2nnc(NC(=O)C(C)C)o2)c1
5. Cc1ccc(C)c(-c2nnc(NC(=O)c3cc(Cl)sc3Cl)o2)c1
6. Cc1ccc(C(=O)Nc2sc3c(c2C(N)=O)CCC(C(C)(C)C)C3)c(C)c1 (stereo unspecified)
7. CCOc1ccc(-c2nnc(SCC(=O)Nc3cc(C)on3)o2)cc1
8. COc1ccc(CCNC(=O)c2ccc(C#CC(C)(C)O)s2)cc1

1. -9.29
2. 80.2
3. -22.5
4. 78.6
5. 96.3
6. -11.7
7. 32.7
8. 80.8

Hi there! I need inhibition for each item below, if you can.
1. Cc1ccc(C)c(-c2nnc(NC(=O)c3cccc4ccccc34)o2)c1
2. COc1ccccc1C(=O)Nc1nnc(-c2cc(C)ccc2C)o1
3. CC(C)(C)C(=O)Nc1nnc(-c2cc(Cl)ccc2Cl)o1
4. Cc1nc2ccccc2n1CC(O)COc1ccc(C2C=CCC2)cc1 (stereo unspecified)
5. CCc1nc2ccccc2n1CCCOc1ccccc1
6. CCN(CC)c1ccc(NC(=O)c2cnccn2)cc1
7. COc1ccc(OC(C)C(=O)Nc2ccc(Cl)cc2C)cc1 (stereo unspecified)
8. Cc1ccc2nc(NNC(=O)c3cc4ccccc4oc3=O)sc2c1

1. -5.52
2. -7.24
3. 86.9
4. 101
5. 101
6. 96.5
7. -1.86
8. 10.6

Hi there! I need inhibition for each item below, if you can.
1. O=C(NCc1nnc2c3ccccc3c(-c3ccccc3)nn12)c1ccc(Cl)cc1
2. CCN(CC)S(=O)(=O)c1ccc(Cl)c(C(=O)Oc2cccc3cccnc23)c1
3. O=C(C=Cc1cccs1)N1CCN(Cc2ccc3c(c2)OCO3)CC1

1: -15.9; 2: 99.3; 3: 100

Hi there! I need inhibition for each item below, if you can.
1. Cc1cccc2sc(NNC(=O)c3cc4ccccc4oc3=O)nc12
2. Cc1cc(C)c2nc(NNC(=O)c3cc4ccccc4oc3=O)sc2c1
3. CC(NC(=O)c1ccc([N+](=O)[O-])o1)C12CC3CC(CC(C3)C1)C2 (stereo unspecified)
4. Cc1ccc2oc(-c3cc(NC(=O)Cc4ccccc4)ccc3Cl)nc2c1

89
86.5
75.5
49.9

* * *

- test-name: M. tuberculosis growth inhibition, HTS (AID 1259417);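 further: bacteria grown with compound for 5 days at 37 °C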
- run-conditions: M. tuberculosis growth inhibition; stronger effect = higher value; concentration not given here
Among all 1,100 compounds or so, about 760 (69%) were called active. So high a share suggests a set chosen from earlier hits. This is one part of the list.
parameter-measured: inhibition (%)
Numbers only, in %.

For orientation, consider the following solved cases.
# compound, display-unit, inhibition
records = [
    ("COc1ccccc1NC(=O)CSc1nc(-c2ccccc2)cc(C(F)(F)F)c1C#N", "%", 24.8),
    ("COC(=O)c1sccc1NC(=O)c1c(F)c(F)c(F)c(F)c1F", "%", 97.7),
    ("CCc1cc(C(=O)OC)c(NC(=S)NCc2ccc(Cl)c(Cl)c2)s1", "%", 88.4),
]

Hi there! I need inhibition for each item below, if you can.
1. OC(COCCC12CC3CC(CC(C3)C1)C2)CN1CCc2ccccc2C1 (stereo not given)
2. CCOC(=O)c1sc(NC(=O)c2c(F)c(F)c(F)c(F)c2F)c(C(=O)OCC)c1C
3. O=C(CSc1ccc(Br)cc1)Nc1ccccc1F
4. CCOC(=O)c1cc(-c2ccccc2)sc1NC(=S)NC1CCN(Cc2ccccc2)CC1
5. CCOC(=O)c1c(NC(=O)c2cccc(OC(C)=O)c2)sc(CC)c1-c1ccccc1
6. Cc1cc(C)c(-n2c(O)c(/C=C3\C=CC=N3)c(=O)[nH]c2=O)c(C)c1

10.3
88.9
46.4
1.16
-5.86
98.6

Data request, read-out inhibition, for CCOc1cc2c3c(c1)C1(C(=O)N3C(C)(C)C=C2C)C(C#N)=C(N)Oc2cc(O)ccc21 (stereo not given) -4.41

* * *

- test-name: M. tuberculosis growth inhibition, HTS (AID 1259417);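 further: bacteria grown with compound for 5 days at 37 °C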
- run-conditions: M. tuberculosis DsRed fluorescence growth inhibition; stronger effect = higher value; concentration not given here
The campaign covered roughly 1,100 compounds. About 760 (69%) were called active. The set was probably picked from earlier hits. The list shows a part of the results.
So I've got a bunch of compounds here, and I need their inhibition values.

For orientation, consider the following solved cases.
# compound, parameter-measured, reading
measured = [
    ("COc1ccccc1NC(=O)CSc1nc(-c2ccccc2)cc(C(F)(F)F)c1C#N", "inhibition", "0.888% (inactive)"),
    ("CCn1cc(C(=O)O)c(=O)c2cc(F)c(N3CCN(C)CC3)cc21", "inhibition", "94.8% (active)"),
    ("COC(=O)CSc1cc(SCC(=O)OC)c(C#N)c(SCC(=O)OC)c1", "inhibition", "28.8% (inactive)"),
]

Hi there! I need inhibition for each item below, if you can.
1. Cc1ccc2sc(NNC(=O)C3COc4ccccc4O3)nc2c1C (stereo not drawn)
2. CC1CC(C)CN(C(=O)Nc2ccc(Cl)c(Cl)c2)C1 (stereo not drawn)
3. COC(=O)CSc1nc(N)c2c3c(sc2n1)CCCC3
4. CN1CCN(c2cc(-c3ccccc3)nc3c(C(F)(F)F)cccc23)CC1
5. CCC1CCCCN1C(=O)COC(=O)c1cc2ccccc2cc1O (stereo not drawn)

1: -2.21% (inactive); 2: 9.98% (inactive); 3: 44.7% (active); 4: 93% (active); 5: 37.8% (active)

Hi there! I need inhibition for each item below, if you can.
1. O=[N+]([O-])c1ccc(N2CCN(CCO)CC2)cc1NCCOc1cccc2ccccc12
2. CCn1c(C=Cc2ccc([N+](=O)[O-])o2)nc2ccc(I)cc2c1=O
3. COC(=O)CSc1ccc2c(N)c(C(=O)OC)sc2c1
4. CC1CC(C)CN(C(=O)COC(=O)c2cc3ccccc3cc2O)C1 (stereo not drawn)
5. CC(NCC(O)COc1ccccc1C(C)(C)C)c1ccccc1 (stereo not drawn)
6. CC(=O)OCCNc1cc(SCc2ccco2)c2nonc2c1[N+](=O)[O-]
7. COC(=O)CSc1nnc(-c2ccc(OC)cc2OC)o1
8. Cc1c(Cl)ccc(OCCCN2CCCC(C)C2)c1C (stereo not drawn)

10.3% (inactive)
36.1% (active)
43.5% (active)
36.3% (active)
61.1% (active)
14.7% (inactive)
85.8% (active)
99.2% (active)

Hi there! I need inhibition for each item below, if you can.
1. COc1ccc(-c2nc(NC(=O)c3ccccc3)n[nH]2)cc1OC
2. Cc1ccc2nc(NNC(=O)c3cc4ccccc4oc3=O)sc2c1
3. O=C1c2ccccc2C(=O)N1CCCCN(C(=O)c1cc([N+](=O)[O-])cc([N+](=O)[O-])c1)c1ccc(Cl)cc1
4. O=c1oc(-c2ccccc2Br)nc2sc3c(c12)CCCC3
5. CCOc1ccc(NCCC(=O)c2cccs2)cc1

["97.2% (active)", "-1.04% (inactive)", "97.2% (active)", "99.7% (active)", "-0.257% (inactive)"]

Hi there! I need inhibition for each item below, if you can.
1. COC(=O)CSc1ccc(C#N)c(SCC(=O)OC)c1
2. CC1=NN(c2nc3ccccc3s2)C(=O)C1Cc1cccc2ccccc12 (stereo not drawn)

-1.74% (active)
-2.3% (inactive)
